System Under Test: Endothelin-1 receptor (Rattus norvegicus, UniProt P26684)
Sequence (P26684 whole entry): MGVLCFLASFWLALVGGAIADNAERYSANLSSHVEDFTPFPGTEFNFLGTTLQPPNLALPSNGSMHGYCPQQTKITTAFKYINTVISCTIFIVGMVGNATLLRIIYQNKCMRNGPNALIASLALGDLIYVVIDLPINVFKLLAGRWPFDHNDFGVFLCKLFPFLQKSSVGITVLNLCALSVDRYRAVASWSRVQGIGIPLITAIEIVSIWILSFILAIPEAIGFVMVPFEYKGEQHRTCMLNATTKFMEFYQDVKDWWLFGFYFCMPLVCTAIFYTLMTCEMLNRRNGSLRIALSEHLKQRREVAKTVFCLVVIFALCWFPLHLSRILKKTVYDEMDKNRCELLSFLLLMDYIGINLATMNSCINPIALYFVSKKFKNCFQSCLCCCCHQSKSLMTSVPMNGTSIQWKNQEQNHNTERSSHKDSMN
Assay Name: Inhibitory activity against the Endothelin A receptor of rat MMQ cells
pIC50: −log10 of the molar value.
Classify as follows. Reported pIC50 greater than or equal to 7: T. Reported pIC50 below: F.

Example entries begin here.
{"Entry Smiles": "COc1ccc([C@@H]2[C@@H](C(=O)O)[C@H](c3ccc4c(c3)OCO4)CN2C(=O)Nc2ccccc2)cc1", "System Under Test": "Endothelin-1 receptor (Rattus norvegicus, UniProt P26684)", "Class": "F"}
{"Entry Smiles": "COc1ccc([C@@H]2[C@@H](C(=O)O)[C@H](c3ccc4c(c3)OCO4)CN2CC(=O)N(C)c2ccccc2)cc1", "System Under Test": "Endothelin-1 receptor (Rattus norvegicus, UniProt P26684)", "Class": "T"}
{"Entry Smiles": "COc1ccc([C@@H]2[C@@H](C(=O)O)[C@H](c3ccc4c(c3)OCO4)CN2CC(=O)NCC(C)C)cc1", "System Under Test": "Endothelin-1 receptor (Rattus norvegicus, UniProt P26684)", "Class": "T"}

Qu. Is pIC50 at least 7? Consider CCCCCN(CCCCC)C(=O)CN1C[C@@H](c2ccc3c(c2)OCO3)[C@H](C(=O)O)[C@H]1c1ccc(OC)cc1
Ans. T

Qu. Is pIC50 at least 7? Consider COc1ccc([C@@H]2[C@@H](C(=O)O)[C@H](c3ccc4c(c3)OCO4)CN2CCOCC(C)C)cc1
Ans. F

Qu. Is pIC50 at least 7? Consider COc1ccc([C@@H]2[C@@H](C(=O)O)[C@H](c3ccc4c(c3)OCO4)CN2CC(=O)N(C)C2CCCCC2)cc1
Ans. T

----------
System Under Test: UniProt:P24530
Sequence (P24530 whole entry): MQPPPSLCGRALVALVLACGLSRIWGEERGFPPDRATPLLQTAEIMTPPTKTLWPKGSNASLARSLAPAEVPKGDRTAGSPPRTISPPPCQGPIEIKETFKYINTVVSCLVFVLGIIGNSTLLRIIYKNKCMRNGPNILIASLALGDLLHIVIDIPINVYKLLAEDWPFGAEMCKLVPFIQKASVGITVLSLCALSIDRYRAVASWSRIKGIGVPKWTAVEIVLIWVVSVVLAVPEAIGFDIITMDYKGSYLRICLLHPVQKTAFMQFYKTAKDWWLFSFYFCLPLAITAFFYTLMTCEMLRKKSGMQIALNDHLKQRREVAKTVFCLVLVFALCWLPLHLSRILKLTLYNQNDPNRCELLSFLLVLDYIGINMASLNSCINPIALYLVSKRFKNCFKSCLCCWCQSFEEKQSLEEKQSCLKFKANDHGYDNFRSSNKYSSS
Assay Name: Radioligand binding selectivity to human Endothelin B receptor in chinese hamster ovary cells
Quantity Name: IC50 (µM)
Supply the numeric figure in µM, leaving out any unit text.

Please review the entries below; each comes with its answer.
{"Entry Smiles": "CCCCN(C)C(=O)CN1C[C@@H](c2ccc3c(c2)OCO3)[C@H](C(=O)O)[C@H]1c1ccc(OC)cc1", "System Under Test": "UniProt:P24530", "Unit Abbrev": "µM", "IC50": 1.08}
{"Entry Smiles": "CCCCN(CCC)C(=O)CN1C[C@@H](c2ccc3c(c2)OCO3)[C@H](C(=O)O)[C@H]1c1ccc(OC)cc1", "System Under Test": "UniProt:P24530", "Unit Abbrev": "µM", "IC50": 0.211}
{"Entry Smiles": "CCCN(CCC)C(=O)CN1C[C@@H](c2ccc3c(c2)OCO3)[C@H](C(=O)O)[C@H]1c1ccc(OC)cc1", "System Under Test": "UniProt:P24530", "Unit Abbrev": "µM", "IC50": 0.397}
{"Entry Smiles": "CCCNC(=O)CN1C[C@@H](c2ccc3c(c2)OCO3)[C@H](C(=O)O)[C@H]1c1ccc(OC)cc1", "System Under Test": "UniProt:P24530", "Unit Abbrev": "µM", "IC50": 0.579}

Next item in the queue.
Qu. Provide only the value of recorded IC50 for CCCN(C)C(=O)CN1C[C@@H](c2ccc3c(c2)OCO3)[C@H](C(=O)O)[C@H]1c1ccc(OC)cc1
Ans. 4.57

----------
System Under Test: Endothelin receptor (Rattus norvegicus, UniProt P26684+P21451)
Assay Name: Inhibition of phosphoinositol hydrolysis of MMQ cells.
Type: functional, cell-based
# binning rule on IC50: low interval (below 1 nM), middle interval (1 nM to below 9 nM), high interval (9 nM or more)

Example entries begin here.
{"Molecule": "CCCCN(C)C(=O)CN1C[C@@H](c2ccc3c(c2)OCO3)[C@H](C(=O)O)[C@H]1c1ccc(OC)cc1", "Class": "low interval"}
{"Molecule": "CCCCCN(C)C(=O)CN1C[C@@H](c2ccc3c(c2)OCO3)[C@H](C(=O)O)[C@H]1c1ccc(OC)cc1", "Class": "middle interval"}
{"Molecule": "COc1ccc([C@@H]2[C@@H](C(=O)O)[C@H](c3ccc4c(c3)OCO4)CN2CC(=O)N(CC(C)C)CC(C)C)cc1", "Class": "low interval"}
{"Molecule": "COc1ccc([C@@H]2[C@@H](C(=O)O)[C@H](c3ccc4c(c3)OCO4)CN2CC(=O)NC2CCCC2)cc1", "Class": "high interval"}
{"Molecule": "COc1ccc([C@@H]2[C@@H](C(=O)O)[C@H](c3ccc4c(c3)OCO4)CN2CC(=O)N(C)CC(C)C)cc1", "Class": "low interval"}
{"Molecule": "CCCN(CCC)C(=O)CN1C[C@@H](c2ccc3c(c2)OCO3)[C@H](C(=O)O)[C@H]1c1ccc(OC)cc1", "Class": "low interval"}
{"Molecule": "C=CCNC(=O)CN1C[C@@H](c2ccc3c(c2)OCO3)[C@H](C(=O)O)[C@H]1c1ccc(OC)cc1", "Class": "high interval"}
{"Molecule": "CCCNC(=O)CN1C[C@@H](c2ccc3c(c2)OCO3)[C@H](C(=O)O)[C@H]1c1ccc(OC)cc1", "Class": "high interval"}
{"Molecule": "CCCCN(CC)C(=O)CN1C[C@@H](c2ccc3c(c2)OCO3)[C@H](C(=O)O)[C@H]1c1ccc(OC)cc1", "Class": "low interval"}
{"Molecule": "CCCCN(CCC)C(=O)CN1C[C@@H](c2ccc3c(c2)OCO3)[C@H](C(=O)O)[C@H]1c1ccc(OC)cc1", "Class": "low interval"}

Qu. Which class is correct for the following molecule? CCCCN(CCCC)C(=O)C(C)N1CC(c2ccc3c(c2)OCO3)C(C(=O)O)C1c1ccc(OC)cc1 (stereo not drawn)
Ans. middle interval

Qu. Which class is correct for the following molecule? CCN(CC)C(=O)CN1C[C@@H](c2ccc3c(c2)OCO3)[C@H](C(=O)O)[C@H]1c1ccc(OC)cc1
Ans. middle interval

Qu. Which class is correct for the following molecule? COc1ccc([C@@H]2[C@@H](C(=O)O)[C@H](c3ccc4c(c3)OCO4)CN2CC(=O)N(C)C2CCCCC2)cc1
Ans. middle interval

Qu. Which class is correct for the following molecule? CCCCNC(=O)CN1C[C@@H](c2ccc3c(c2)OCO3)[C@H](C(=O)O)[C@H]1c1ccc(OC)cc1
Ans. high interval

Qu. Which class is correct for the following molecule? COCCN(CCOC)C(=O)CN1C[C@@H](c2ccc3c(c2)OCO3)[C@H](C(=O)O)[C@H]1c1ccc(OC)cc1
Ans. middle interval

// data source = ChEMBL document CHEMBL1129506
